# System: K4 kissing-loop RNA reporter;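 further: bound reporter read as fluorescence of individual clusters on recovered sequencing chips by microscopy, with normalized cluster intensities fitted with a binding model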
# experiment.summary: apparent KD of K4 kissing-loop reporter; higher = weaker reporter binding
# measurement.setup: Eterna round: R107; input ligand: tryptophan 2.4 mM
Label not satisfied if apparent KD of K4 kissing-loop reporter falls below 0.09 µM; label satisfied in every other case.

| input.sequence | assay.target | class.name |
| --- | --- | --- |
| UGAUACCAGACUGAUACCAGCCAGUGAUGUUGGCUAAGCCGAAGAGGUGUCAAAGACACCGGCCCUUGGCAGCAGUCUGGUAUCU [#06 K4 Theophylline B Exclusion] | K4 kissing-loop RNA reporter | satisfied |
| GAAAUCACGGAUGAUACCAGCCAGAACUCUCACAGUGAUGUUGUGCUUAAAUGAUUAGGAGGCCCUUGGCAGCAUACGCUAAUUU [theeternabot_sameState_KL_Theo_B_36] | K4 kissing-loop RNA reporter | satisfied |
| GUUAUGGACCUGGAUACCAGCUGGUACUAAGUGGGAGAAUGAAAGUGAUGUUUUCGUGCUAGCCCUUGGCAGCCAGCAACCCGCA [XTheo-B7] | K4 kissing-loop RNA reporter | not satisfied |
| AUGUAUGAAUUAGGAUAUCGUGAGCUUUGCAUAUAUAUGAUAAAUGGAUAUGUCGUAGUGAUGUUACGAGAAGGAGUGUGGAGUA [KL-XFMN-B3] | K4 kissing-loop RNA reporter | not satisfied |
| AAUAAAAUCACGGCCGCCACUGAUUUCCAUAUUAGGAGUGAUGUUCCUAUGACUAUAUAAUUUAACAGGACCGGGUGAAUAUUUA [JR_ExcTryptoB_Sub012] | K4 kissing-loop RNA reporter | satisfied |

Next sequence, please.
Please indicate if the recorded apparent KD of K4 kissing-loop reporter for CCACCUCCAGAAGGAUAUAGUGUAUCAGAUUCACUCGAGUGCCUUAAACUAAGGAGUGAUGUUCCGCUAGAAGGUCUCGUAGGCA [theeternabot_exclusion_KL_FMN_B_45] meets or exceeds 0.09 µM.
satisfied

====

# System: MS2 coat protein
# experiment.summary: apparent KD of MS2 coat protein; designed switch direction (-1 OFF switch, 1 ON switch): 1; higher = weaker reporter binding
# measurement.setup: input ligand: FMN 200 uM
Label f if apparent KD of MS2 coat protein falls below 30 nM; label t in every other case.

Completed entries (count: 3):
| input.sequence | class.name |
| --- | --- |
| GCUCGUAUGAUGACCGACAUGAGGAUCACCCAUGUGUGUCGGUAGGAUAUCUAUAUUAAGGAUAUAGAGAAGGGCCCAACGAGC [SameState NG3 #18] (Eterna round: R96, puzzle: Same State NG 3) | t |
| UUGAAGAAUUAAGGAUAUUGAAUACAUAUGUUUAACAUGAGGAUCACCCAUGUGGGUUGCGGUAUCGAGAAGGUAAAUUACUAA [Mat - Same State NG 2 - JL mod - D1] (Eterna round: R96, puzzle: Same State NG 2) | t |
| UACUUCAUGUAAGGAUAUGCAGCCGUUUCGGCUGCAGAAGGUACUAUAAUACAUGAGGAUCACCCAUGUCUCUCGCAUUGCGAG [JL SSNG1 1.50] (Eterna round: R96, puzzle: Same State NG 1) | t |

Please indicate if the recorded apparent KD of MS2 coat protein for CUGAGCAGUCAAGGAUAUCACGUCGAUUAGACGUGAGAAGGUGACCAAUACAUGAGGAUCACCCAUGUAAUACAUGAAGCUCAG [SSNG1/12-A2] (Eterna round: R96, puzzle: Same State NG 1) meets or exceeds 30 nM.
f

Please indicate if the recorded apparent KD of MS2 coat protein for GGUAGGUUACUACCAAACAUGAGGAUCACCCAUGUUAAUGGGAAGGAUAUGGUACCUAUUUGGUACCAGAAGGUCCAAAUAAUU [Mat - Same State NG 3 - JL Mod - D97] (Eterna round: R96, puzzle: Same State NG 3) meets or exceeds 30 nM.
t

Please indicate if the recorded apparent KD of MS2 coat protein for GUGCUCGUGUGAGGAUAUGCUUCCGUUUCGGCUGCAGAAGGUACUAUUAUACAUGAGGAUCACCCAUGUCUCUUUUGUUCGGUG [salish99_SSNG1_r04_911] (Eterna round: R96, puzzle: Same State NG 1) meets or exceeds 30 nM.
t

Please indicate if the recorded apparent KD of MS2 coat protein for AUAAGACAGGCAGGAUAUGGGCCUGACUCUGAUAUCAGAGUCUACACAUGAGGAUCACCCAUGUCCCAGAAGGGCCUGAAGAAG [Zavean] (Eterna round: R96, puzzle: Same State NG 2) meets or exceeds 30 nM.
f

Please indicate if the recorded apparent KD of MS2 coat protein for GCUAGGAUAUGCAGAGGAUCACCCUGUAGAAGGAGCAUUAGCUAGGAUAUGCAGAGGAUCACCCUGUAGAAGGAGCACUACUCU [pwkr ssNG3 DX 2xF5 +2xFMN.1] (Eterna round: R96, puzzle: Same State NG 3) meets or exceeds 30 nM.
t

Please indicate if the recorded apparent KD of MS2 coat protein for GUACAUAUUAUAGGAUAUCACGUCGUUUAGACGUGAGAAGGAUAAUCCCACAUGAAUAUUAAUACAUGAGGAUCACCCAUGUAC [SSNG1/18-A3] (Eterna round: R96, puzzle: Same State NG 1) meets or exceeds 30 nM.
t

Please indicate if the recorded apparent KD of MS2 coat protein for GUAGCAUACCGAGGAUAUUCAUACAUGAGGAUCACCCAUGUUUAGGCCAGCAUUAGCUGGCCUUGGGAGAAGGCGGAAUGCUAC [Xeonanis - 20 Mod54] (Eterna round: R96, puzzle: Same State NG 2) meets or exceeds 30 nM.
f

Please indicate if the recorded apparent KD of MS2 coat protein for UUGAAGAAUUAAGGAUAUCGAGUCGUCAGAUUUUACAUGAGGAUCACCCAUGUGGGUUGCGGUAUCGAGAAGGUAAAUUACAAG [JL JR Sub099 mod 6] (Eterna round: R96, puzzle: Same State NG 2) meets or exceeds 30 nM.
f
